- target: human SGLT2 (Homo sapiens, UniProt P31639)
- Construct: expressed in transfected cells; host or cells: CHOK1 cells (kept under Geneticin selection)
- test description: Assay for SGLT2 inhibition (14C-AMG uptake in CHOK1 cells expressing human SGLT2)
- Assay type: cell-based
- experimental parameters: CHOK1 cells expressing human SGLT2, 14C-AMG uptake 0.5 mM, 2 hours at 37° C.
quantity kind: IC50 (nM)

Examples with their reported IC50 follow.
CCOc1ccc(Cc2cn([C@@H]3S[C@H](CO)[C@@H](O)[C@H](O)[C@H]3O)c3cccc(C)c23)cc1    46
OC[C@H]1S[C@@H](n2cc(Cc3ccc4occc4c3)c3c(F)cccc32)[C@H](O)[C@@H](O)[C@@H]1O    190
CCc1ccc(Cc2cn([C@@H]3S[C@H](CO)[C@@H](O)[C@H](O)[C@H]3O)c3ccccc23)cc1    180

I: OC[C@H]1S[C@@H](n2cc(Cc3ccc(I)cc3)c3c(F)cccc32)[C@H](O)[C@@H](O)[C@@H]1O
II: OC[C@H]1S[C@@H](n2cc(Cc3ccc(-c4cccs4)cc3)c3c(F)cccc32)[C@H](O)[C@@H](O)[C@@H]1O
III: OC[C@H]1S[C@@H](n2cc(Cc3ccc(Br)cc3)c3c(Cl)cccc32)[C@H](O)[C@@H](O)[C@@H]1O
IV: OC[C@H]1S[C@@H](n2cc(Cc3ccc4occc4c3)c3c(Cl)cccc32)[C@H](O)[C@@H](O)[C@@H]1O
Ask | With regard to IC50, arrange the entries in ascending order, please. Output spec: a listing of the labels in the requested order.
Reply | IV, I, III, II
(IV: 41 nM, I: 63 nM, III: 97 nM, II: 150 nM)

---

- target: human SGLT2 (Homo sapiens, UniProt P31639)
- Sequence (P31639 1-672): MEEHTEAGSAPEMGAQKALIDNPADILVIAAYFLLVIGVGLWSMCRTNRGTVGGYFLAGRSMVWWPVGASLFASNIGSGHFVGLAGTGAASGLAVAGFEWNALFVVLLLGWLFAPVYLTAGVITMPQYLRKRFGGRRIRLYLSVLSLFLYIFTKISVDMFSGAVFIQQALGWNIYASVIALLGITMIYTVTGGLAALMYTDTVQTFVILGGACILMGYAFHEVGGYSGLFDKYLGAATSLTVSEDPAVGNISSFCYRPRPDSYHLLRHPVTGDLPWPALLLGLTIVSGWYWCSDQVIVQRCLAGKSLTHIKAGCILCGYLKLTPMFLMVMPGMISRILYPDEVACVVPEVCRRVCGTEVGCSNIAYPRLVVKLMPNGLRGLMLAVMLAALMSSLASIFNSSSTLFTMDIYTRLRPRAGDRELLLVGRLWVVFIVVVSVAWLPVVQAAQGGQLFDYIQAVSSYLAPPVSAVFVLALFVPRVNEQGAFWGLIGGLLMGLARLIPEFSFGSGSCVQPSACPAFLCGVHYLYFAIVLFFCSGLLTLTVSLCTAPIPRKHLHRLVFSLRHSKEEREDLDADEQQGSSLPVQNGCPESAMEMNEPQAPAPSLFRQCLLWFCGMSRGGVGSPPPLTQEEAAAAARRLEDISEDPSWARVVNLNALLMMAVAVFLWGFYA
- test description: Assay for SGLT2 inhibition (14C-AMG uptake in CHOK1 cells expressing human SGLT2)
- experimental parameters: CHOK1 cells expressing human SGLT2, 14C-AMG uptake 0.5 mM, 2 hours at 37° C.
pIC50: −log10 of the molar value.
quantity kind: pIC50

OC[C@H]1O[C@@H](c2ccc(Cl)c(Cc3cc4ccccc4s3)c2)[C@H](O)[C@@H](O)[C@H]1O    7.77

P: CSc1ccc(Cc2cn([C@@H]3S[C@H](CO)[C@@H](O)[C@H](O)[C@H]3O)c3cccc(Cl)c23)cc1
Q: OC[C@H]1S[C@@H](n2cc(Cc3ccc(C(F)F)cc3)c3c(Cl)cccc32)[C@H](O)[C@@H](O)[C@@H]1O
R: OC[C@H]1S[C@@H](n2cc(Cc3ccc(-c4ccc(F)nc4)s3)c3c(Cl)cccc32)[C@H](O)[C@@H](O)[C@@H]1O
Ask | I would appreciate it if you could sort these 3 compounds by pIC50, starting from the smallest number. Put the labels in the order asked and list them.
Reply | R, Q, P
(R: 6.72, Q: 7.46, P: 7.66)

---

- target: human SGLT2 (Homo sapiens)
- test description: Assay for SGLT2 inhibition (14C-AMG uptake in CHOK1 cells expressing human SGLT2)
- experimental parameters: CHOK1 cells expressing human SGLT2, 14C-AMG uptake 0.5 mM, 2 hours at 37° C.
pIC50: −log10 of the molar value.
quantity kind: pIC50

Please review the following examples before continuing.
CCc1ccc(Cc2cn([C@@H]3O[C@H](CO)[C@@H](F)[C@H](O)[C@H]3O)c3ncccc23)cc1 [Example 36]    6.92
OC[C@H]1S[C@@H](n2cc(Cc3ccc(-c4ccccn4)s3)c3c(Cl)cccc32)[C@H](O)[C@@H](O)[C@@H]1O [Example 33]    8.00

a: OC[C@H]1S[C@@H](n2cc(Cc3ccc(Cl)cc3)c3c(Cl)cccc32)[C@H](O)[C@@H](O)[C@@H]1O [Example 13]
b: CCc1ccc(Cc2cn([C@@H]3S[C@H](CO)[C@@H](O)[C@H](O)[C@H]3O)c3cccc(Cl)c23)cc1 [Example 2]
Ask | Problem: Given the entries a and b , determine which has the lower reported pIC50. State the label of the item chosen.
Reply | a

---

- target: human SGLT2 (Homo sapiens, UniProt P31639)
- test description: Assay for SGLT2 inhibition (14C-AMG uptake in CHOK1 cells expressing human SGLT2)
- experimental parameters: CHOK1 cells expressing human SGLT2, 14C-AMG uptake 0.5 mM, 2 hours at 37° C.
quantity kind: IC50 (nM)

Below: 3 compounds and their reported IC50.
N#Cc1cccc(-c2ccc(Cc3cn([C@@H]4S[C@H](CO)[C@@H](O)[C@H](O)[C@H]4O)c4cccc(Cl)c34)s2)c1    210
OC[C@H]1S[C@@H](n2cc(Cc3ccc4ccccc4c3)c3c(Cl)cccc32)[C@H](O)[C@@H](O)[C@@H]1O    130
OC[C@H]1S[C@@H](n2cc(Cc3ccc(Br)s3)c3c(Cl)cccc32)[C@H](O)[C@@H](O)[C@@H]1O    170

A: Cc1cccc2c1c(Cc1ccc(Cl)cc1)cn2[C@@H]1S[C@H](CO)[C@@H](O)[C@H](O)[C@H]1O
B: OC[C@H]1O[C@@H](c2ccc(Cl)c(Cc3cc4ccccc4s3)c2)[C@H](O)[C@@H](O)[C@H]1F
C: O[C@@H]1[C@@H](O)[C@H](c2ccc(Cl)c(Cc3ccc(-c4ccccc4)s3)c2)O[C@H](CF)[C@H]1O
D: Cc1cccc2c1c(Cc1ccc(C3CC3)cc1)cn2[C@@H]1S[C@H](CO)[C@@H](O)[C@H](O)[C@H]1O
Ask | Highest IC50 first, then in falling order down to the smallest. Put the labels in the requested order and write them down.
Reply | A, C, D, B
(A: 180 nM, C: 31 nM, D: 19 nM, B: 5.3 nM)

---

- target: human SGLT2 (Homo sapiens)
- Sequence (P31639 1-672): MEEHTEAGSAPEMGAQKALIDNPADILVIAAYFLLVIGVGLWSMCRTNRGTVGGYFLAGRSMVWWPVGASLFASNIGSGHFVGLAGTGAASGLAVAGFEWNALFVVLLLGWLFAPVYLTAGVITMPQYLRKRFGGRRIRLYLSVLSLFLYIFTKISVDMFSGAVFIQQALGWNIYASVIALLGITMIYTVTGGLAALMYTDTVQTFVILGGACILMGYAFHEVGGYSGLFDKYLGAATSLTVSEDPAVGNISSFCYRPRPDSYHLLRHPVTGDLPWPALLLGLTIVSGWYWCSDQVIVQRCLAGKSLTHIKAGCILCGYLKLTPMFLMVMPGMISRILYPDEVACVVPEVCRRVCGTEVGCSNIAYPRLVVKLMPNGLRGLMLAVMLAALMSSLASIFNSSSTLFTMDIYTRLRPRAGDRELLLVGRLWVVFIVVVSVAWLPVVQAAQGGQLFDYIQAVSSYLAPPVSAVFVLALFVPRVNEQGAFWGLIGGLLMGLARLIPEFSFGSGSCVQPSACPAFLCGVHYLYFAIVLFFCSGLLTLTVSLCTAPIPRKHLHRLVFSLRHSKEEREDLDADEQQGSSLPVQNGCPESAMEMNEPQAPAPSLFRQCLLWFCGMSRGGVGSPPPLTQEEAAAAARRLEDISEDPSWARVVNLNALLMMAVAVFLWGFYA
- test description: Assay for SGLT2 inhibition (14C-AMG uptake in CHOK1 cells expressing human SGLT2)
- experimental parameters: CHOK1 cells expressing human SGLT2, 14C-AMG uptake 0.5 mM, 2 hours at 37° C.
quantity kind: IC50 (nM)

CCc1ccc(Cc2cn([C@@H]3S[C@H](CO)[C@@H](O)[C@H](O)[C@H]3O)c3cccc(Cl)c23)s1 [Example 25]    67

P: OC[C@H]1S[C@@H](n2cc(Cc3ccc(OC(F)F)cc3)c3c(Cl)cccc32)[C@H](O)[C@@H](O)[C@@H]1O [Example 30]
Q: COc1ccc(Cc2cn([C@@H]3S[C@H](CO)[C@@H](O)[C@H](O)[C@H]3O)c3cccc(Cl)c23)cc1 [Example 15]
Ask | Parameter metric = IC50. Return the lower-valued option from P and Q . Which one? Tell me its label.
Reply | Q
(Q: 15 nM, P: 54 nM)

// data source = patent US20080027014A1
